Origin of the recorded values: PubChem BioAssay (NCATS)

# method_notes: Quantitative High-Throughput drug screen in 47 multiple myeloma cell lines against the NCATS MIPE library collection: NCIH929_DSMZ cell viability assay (AID 1918978); also: nearly all actives have a fitted effect of over 35% in size
# condition_description: NCI-H929 myeloma viability, CellTiter-Glo ATP, 48 h; series mostly up to 45.8 µM
Results filed as inconclusive are left out. Calls of active or inactive are those of the source. Calls follow the shape of the dose curve; as a rule, active = well fitted cell-killing curve with a large enough effect; inconclusive = small, poorly fitted or top-dose-only effect; inactive = no such curve, though single readings can be large or run the other way.
Outcome codes: 1 (active), -1 (inactive)

molecule: CC1(C)O[C@H]2CC(=O)OC[C@]23[C@H]2CC[C@@]4(C)[C@H](c5ccoc5)OC(=O)[C@H]5O[C@]54[C@]2(C)C(=O)C[C@@H]13
class_name: -1
//
molecule: O=C1Cc2cc(CCN3CCN(c4nsc5ccccc45)CC3)c(Cl)cc2N1
class_name: 1
//
molecule: CN1CCC(=C2c3ccccc3C=Cc3ccccc32)CC1
class_name: 1
//
molecule: CN1CCN(CCCN2c3ccccc3Sc3ccc(Cl)cc32)CC1
class_name: 1
//
molecule: CN1C2CCC1CC(OC(=O)C(CO)c1ccccc1)C2 (stereo not given)
class_name: -1

* * *

# Tested on: TAB165
# method_notes: qHTS profiling for inhibitors of Plasmodium falciparum proliferation (AID 504749); also: nearly all actives have a fitted effect of over 60% in size
# condition_description: P. falciparum in erythrocytes, SYBR Green DNA, 72 h; series mostly up to 28.7 µM
Inconclusive results are not listed. The source made the active and inactive calls. The call rests on the fitted dose curve; in most records, active means well fitted inhibition curve with a large enough effect; inconclusive means small, poorly fitted or top-dose-only effect; inactive means flat fitted curve, though single readings scatter.
Outcome codes: y for active, n for inactive

compound: C[C@](N)(Cc1ccc(O)c(O)c1)C(=O)O
class_name: n
--
compound: Cn1c(=O)c2[nH]cnc2n(C)c1=O
class_name: n
--
compound: CCCCc1oc2ccccc2c1C(=O)c1cc(I)c(OCCN(CC)CC)c(I)c1
class_name: y
--
compound: O=C1c2c(O)ccc(O)c2C(=O)c2c(NCCNCCO)ccc(NCCNCCO)c21
class_name: y
--
compound: NCCS(=O)(=O)O
class_name: n
--
compound: CN(Cc1cnc2nc(N)nc(N)c2n1)c1ccc(C(=O)N[C@@H](CCC(=O)O)C(=O)O)cc1
class_name: n
--
compound: CCCNCC(O)COc1ccccc1C(=O)CCc1ccccc1 (stereo not drawn)
class_name: y
--
compound: Cc1cc(C(C)(C)C)cc(C)c1CC1=NCCN1
class_name: n
--
compound: COc1ccccc1OCC(O)CN1CCN(CC(=O)Nc2c(C)cccc2C)CC1 (stereo not drawn)
class_name: n
--
compound: CS(=O)(=O)CCNCc1ccc(-c2ccc3ncnc(Nc4ccc(OCc5cccc(F)c5)c(Cl)c4)c3c2)o1
class_name: n
--
compound: OCCN1CCN(CCCN2c3ccccc3Sc3ccc(C(F)(F)F)cc32)CC1
class_name: y
--
compound: O=c1c(-c2ccc(O)cc2)coc2cc(O)cc(O)c12
class_name: n
--
compound: CC#C[C@]1(O)CC[C@H]2[C@@H]3CCC4=CC(=O)CCC4=C3[C@@H](c3ccc(N(C)C)cc3)C[C@@]21C
class_name: y
--
compound: CC(C)Cc1ccc(C(C)C(=O)O)cc1 (stereo not drawn)
class_name: n
--
compound: CC(C)C(=O)Nc1ccc([N+](=O)[O-])c(C(F)(F)F)c1
class_name: n
--
compound: CS(=O)(=O)Nc1ccc([N+](=O)[O-])cc1Oc1ccccc1
class_name: n
--
compound: CCC1(c2ccccc2)C(=O)NCNC1=O
class_name: n
--
compound: Nc1nnc(-c2cccc(Cl)c2Cl)c(N)n1
class_name: n
--
compound: CC1(CN2CCC(n3c(=O)[nH]c4ccccc43)CC2)OCc2ccccc2-n2cccc21 (stereo not drawn)
class_name: y
--
compound: NC12CC3CC(CC(C3)C1)C2
class_name: n
--
compound: CC[N+](CC)(CC)CCOc1cccc(OCC[N+](CC)(CC)CC)c1OCC[N+](CC)(CC)CC
class_name: n
--
compound: NS(=O)(=O)c1cc2c(cc1Cl)NCNS2(=O)=O
class_name: n
--
compound: CC(=O)OCC(CCn1cnc2cnc(N)nc21)COC(C)=O
class_name: n
